I'd appreciate it if you could supply binding signal values for the items below.
- TARGET OF ASSAY: prostate specific antigen (PSA) (human, UniProt P07288 25-261)
- Sequence (P07288 25-261): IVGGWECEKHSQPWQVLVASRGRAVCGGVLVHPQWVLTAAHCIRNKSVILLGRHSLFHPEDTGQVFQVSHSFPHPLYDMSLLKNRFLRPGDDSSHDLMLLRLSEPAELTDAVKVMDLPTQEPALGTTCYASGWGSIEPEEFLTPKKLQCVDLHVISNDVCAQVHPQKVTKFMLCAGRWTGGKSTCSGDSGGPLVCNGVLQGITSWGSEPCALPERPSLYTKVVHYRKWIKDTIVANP
- PROTOCOL SUMMARY: QCM; 2 ng/ml PSA injected; PBS (10 mM Na2HPO4, 137 mM NaCl, 2 mM KH2PO4, 2.7 mM KCl), pH 7.4; SPR at 25 C, 50 ul/min; PSA 2 ng/ml; DNA/PEG thiol SAM on gold; QCM temperature not stated
- PROTOCOL CONDITIONS: protein: commercial; hairpin (predicted)

BINDER	binding signal
TTTTTCTGGAATGATTTCCCGGTTGTCTCTTT (ssDNA, 5' C6 thiol) [PSAG15]	108 Hz (frequency drop)
TTTTTCTGTTGCCCGGAACGTCGTGGCCCTTT (ssDNA, 5' C6 thiol) [PSAG11]	19.2 Hz (frequency drop)
TTTTTCCGCACAACTTGCCATCAAATATCTTT (ssDNA, 5' C6 thiol) [PSAG118]	24.9 Hz (frequency drop)
TTTTTACGCACCGGGTACGTTTTTTGGCCTTT (ssDNA, 5' C6 thiol) [PSAG119]	91.3 Hz (frequency drop)
TTTTTCCGCACCGGGTACGGTCGTGGCCCTTT (ssDNA, 5' C6 thiol) [PSAG114]	63 Hz (frequency drop)
TTTTTACTTAATGCGGAACGTCGTGGCCCTTT (ssDNA, 5' C6 thiol) [PSAG112]	71.7 Hz (frequency drop)
TTTTTAATATCCGGGTACGTTTTTTGGCCTTT (ssDNA, 5' C6 thiol) [PSAG117]	82.9 Hz (frequency drop)

Quick one: binding signal of TTTTTCTGGTCCGGGTACGTTTTTTGGCCTTT (ssDNA, 5' C6 thiol) [PSAG17] ?
37.3 Hz (frequency drop)
